- Tested on: MALME-3M melanoma
- assay.details: NCI tumour cell line growth inhibition, 48 h
property.measured: TGI

Name the recorded TGI of the item Cc1cn(C2OC(CO)C(O)C2F)c(=O)[nH]c1=O (centres undefined) in your answer. > 100 µM

Name the recorded TGI of the item CCNC(=S)NNC(=O)CSc1nc2ccc(I)cc2c(=O)n1Cc1ccccc1 in your answer. > 67.8 µM

Name the recorded TGI of the item CN1CCCN2CCN(C)CCCN(CC1)CC2 in your answer. > 100 µM

Name the recorded TGI of the item O=C(/C(=N/Nc1ccccc1)c1ccc([N+](=O)[O-])cc1)c1ccc([N+](=O)[O-])cc1 in your answer. > 100 µM

Name the recorded TGI of the item Cc1cccc(Nc2cc(Cl)nc(SCC(=O)O)n2)c1C in your answer. > 100 µM

Could you now consider this next molecule?
Name the recorded TGI of the item O=C(C1OC1c1cccc([N+](=O)[O-])c1)C12CC3CC(CC(C3)C1)C2 (centres undefined) in your answer. 27.9 µM

----------
- System: MALME-3M melanoma
- assay.details: NCI tumour cell line growth inhibition, 48 h
property.measured: TGI

Name the recorded TGI of the item C[C@H](NC(=O)c1c(C(F)F)nn(C)c1Oc1cccc(C(F)(F)F)c1)c1ccc(C(=O)O)cc1 in your answer. > 100 µM

Name the recorded TGI of the item Cc1nc(Sc2nc3ccc([N+](=O)[O-])cc3s2)sc1C in your answer. 3.9 µM

Name the recorded TGI of the item Cc1ccc(O)c(NC2=C(Cl)C(=O)N(Cc3ccccc3)C2=O)c1 in your answer. 67.5 µM

Name the recorded TGI of the item CCOC(=O)C1=C(C(=O)OCC)C2(c3ccccc3)N(O1)c1ccccc1C2(C)C (stereo unspecified) in your answer. > 100 µM

Name the recorded TGI of the item COc1cc2c(c(OC)c1OC)-c1ccc(SC)c(=O)cc1C(CC(=O)Oc1cccc(F)c1)C2 (stereo unspecified) in your answer. > 100 µM

Name the recorded TGI of the item OC(COc1ccccc1)CN1CCCCC1 (stereo unspecified) in your answer. > 100 µM

New cases:
Name the recorded TGI of the item CC12CCC(CC1(Cl)Cl)C2 (stereo unspecified) in your answer. > 100 µM

Name the recorded TGI of the item C/C(CC(=O)Nc1ccc(NC(=O)C/C(C)=N\NC(N)=O)cc1)=N/NC(N)=O in your answer. > 100 µM

Name the recorded TGI of the item CCOc1cc(-c2nc3cc(F)ccc3s2)ccc1O in your answer. 29.8 µM

Name the recorded TGI of the item O=c1[nH]c(=O)n(C2CC(O)C(CO)O2)cc1COCC(F)(F)F (stereo unspecified) in your answer. > 100 µM

Name the recorded TGI of the item COc1ccccc1C1C(C#N)=C(N)Oc2cc(O)ccc21 (stereo unspecified) in your answer. 88.6 µM

----------
- Tested on: MDA-N
- assay.details: NCI tumour cell line growth inhibition, 48 h
This listing pairs molecules with measured TGI.

Name the recorded TGI of the item O=C1NC(=Nc2ccccc2)C(=Nc2ccccc2)N1c1ccccc1 in your answer. 25.6 µM

Name the recorded TGI of the item O=C(Nc1ccc2cc3ccccc3cc2c1)c1cc2c(cc1Cl)Sc1nccn1S2(=O)=O in your answer. > 100 µM

Name the recorded TGI of the item COc1cccc2cc(C(=O)NC34CC5CC(CC(C5)C3)C4)c(=N)oc12 in your answer. > 100 µM

Name the recorded TGI of the item COC[C@H]1C(=O)NCC(=O)N2N=CCC[C@H]2C(=O)N(O)[C@H](C)C(=O)O[C@@H](C(C)C)[C@H](NC(=O)[C@@](C)(O)[C@]2(O)CC[C@@H](CC(C)C)[C@H](C)O2)C(=O)N2NCCC[C@@H]2C(=O)N1O in your answer. 0.0323 µM

Name the recorded TGI of the item C=C(C)C(=O)OC1C[C@H](COC(C)=O)C2CC=C(CO)C2C2OC(=O)C(=C)[C@H]12 (some centres undefined) in your answer. > 100 µM

Name the recorded TGI of the item CN(C)CCCCCNc1c2ccccc2nc2cccc([N+](=O)[O-])c12 in your answer. 0.000409 µM

Name the recorded TGI of the item CCN(CC)c1nc(NC2CCCCC2)c2nc(N(CC)CC)nc(NC3CCCCC3)c2n1 in your answer. > 100 µM

Name the recorded TGI of the item NCCNC(=O)CN(CC(=O)O)C1CCCCC1N(CC(=O)O)CC(=O)O (centres undefined) in your answer. > 100 µM

New cases:
Name the recorded TGI of the item CCn1c(=N)sc2nc3ccccc3n2c1=O in your answer. > 100 µM

----------
This listing pairs compounds with measured TGI.
- System: IGROV1 ovarian
- assay.details: NCI tumour cell line growth inhibition, 48 h

Below: 10 compounds and their reported TGI.
Name the recorded TGI of the item COC(=O)[C@H](Cc1c[nH]c2ccccc12)NC(=O)c1ccccc1I in your answer. > 100 µM

Name the recorded TGI of the item C[C@H]1O[C@@H](C(C)(C)C)OC(=O)[C@@H]1C(OC(=O)c1ccccc1)c1cccc2ccccc12 (stereo partly specified) in your answer. > 100 µM

Name the recorded TGI of the item CC1(C)C(=O)C(=Cc2ccco2)C1=O in your answer. > 100 µM

Name the recorded TGI of the item COc1cccc2nc3c(C(=O)NCCN(C)C)cccc3nc12 in your answer. > 72.9 µM

Name the recorded TGI of the item O=C1/C(=C/c2ccccc2)CCCc2ccccc21 in your answer. 38.8 µM

Name the recorded TGI of the item C=CC[C@]1(C2=NC(C)(C)CO2)c2ccccc2-c2ccccc2[C@H]1C(C)=O in your answer. > 48.6 µM

Name the recorded TGI of the item C=C(CO)CC(/C=C(\C)CC/C=C(\C)CCl)OC(C)=O (stereo unspecified) in your answer. > 100 µM

Name the recorded TGI of the item Cc1ccc(O)c(NC2=C(Cl)C(=O)N(Cc3ccccc3)C2=O)c1 in your answer. 24.2 µM

Name the recorded TGI of the item CCN(CC)c1ccc(N=Nc2ccc(-c3nc4cccn(C)c-4n3)cc2)cc1 in your answer. 25 µM

Name the recorded TGI of the item COc1ccc2oc(C(=O)N3CC(CCl)c4ccc(N)cc43)cc2c1 (stereo unspecified) in your answer. 0.782 µM

Could you now consider this next compound?
Name the recorded TGI of the item CCOc1ccc(C(C)=O)cc1NC(=O)c1cccc(-c2nnn(CC)n2)c1 in your answer. > 100 µM

----------
- Test system: U251 CNS
- assay.details: NCI tumour cell line growth inhibition, 48 h
This listing pairs compounds with measured log10 TGI.
Please be aware that the numbers have been log10-transformed from TGI in µM.

Below: 8 compounds and their reported log10 TGI.
Name the recorded log10 TGI of the item O=C(C1OC1c1cccc([N+](=O)[O-])c1)C12CC3CC(CC(C3)C1)C2 (stereo unspecified) in your answer. 0.98

Name the recorded log10 TGI of the item CC/C(Cc1ccccc1)=C(/c1ccc(O)cc1)c1ccc(OCCN2CCCC2)cc1 in your answer. 0.50

Name the recorded log10 TGI of the item COc1cc(C2c3cc4c(cc3[C@@H](N(C)c3ccc(N(C)C)cc3)C3COC(=O)C23)OCO4)cc(OC)c1O (stereo partly specified) in your answer. 0.16

Name the recorded log10 TGI of the item CCOC(=O)C#Cc1c(C(=O)OCC)nnn1[C@@H]1O[C@H](CO)[C@H]2OC3(CCCCC3)O[C@H]21 in your answer. 1.37

Name the recorded log10 TGI of the item O=C(Oc1ccccc1)C(Br)C(Br)c1ccccc1 (stereo unspecified) in your answer. 1.20

Name the recorded log10 TGI of the item CC12OC(C(=O)C13CCC3)C1C(=O)c3ccc4c(ccc5ccccc54)c3C(=O)C12 (stereo unspecified) in your answer. 1.50

Name the recorded log10 TGI of the item O=C(N/C(=C/c1cccc([N+](=O)[O-])c1)c1nc2ccc(Cl)cc2[nH]1)c1ccccc1 in your answer. 1.40

Name the recorded log10 TGI of the item O=P1(Cc2ccccc2)c2ccccc2-c2ccccc21 in your answer. 1.85

Could you now consider this next compound?
Name the recorded log10 TGI of the item O=C1/C(=C/c2ccccc2)CCCc2ccccc21 in your answer. 1.46

----------
- System: HOP-92 NSCLC
- assay.details: NCI tumour cell line growth inhibition, 48 h
property.measured: TGI (µM)
Provide only the numeric value, understood in µM.

Name the recorded TGI of the item COc1cc(OC)c(OC)cc1/C=C/c1cc[n+](C)c2ccccc12 in your answer. 76.2

Name the recorded TGI of the item CC(C)=C1CCC(CN2CCOCC2)C1=O (stereo unspecified) in your answer. 8.81

New cases:
Name the recorded TGI of the item COc1cccc2nc3c(C(=O)NCCN(C)C)cccc3nc12 in your answer. 28.8

Name the recorded TGI of the item CCC[CH2][Sn]([CH2]CCC)([O]C(=O)c1cccc(F)c1F)[O]C(=O)c1cccc(F)c1F in your answer. 2.57

Name the recorded TGI of the item O=P1(Cc2ccccc2)c2ccccc2-c2ccccc21 in your answer. 6.99

Name the recorded TGI of the item COc1ccccc1C1C(C#N)=C(N)Oc2cc(O)ccc21 (stereo unspecified) in your answer. 33.7
